Source: ChEMBL document CHEMBL1131243

tested on: HeLa; assay: In vitro cytotoxicity against HeLa S3 cell lines, treated for 3 days then uptake of neutral red dye was measured; format: functional, cell-based; details: Homo sapiens, 72 h
pIC50: −log10 of the molar value.
In this section, each of the compounds is paired with its reported pIC50.
reported-property: pIC50

* Nc1ccc(-c2cc(=O)c3c(N)c(F)c(CO)c(F)c3o2)cc1F | 4.62
* CCCCCCc1c(F)c(N)c2c(=O)cc(-c3ccc(N)c(F)c3)oc2c1F | 4.68
* CN(C)Cc1c(F)c(N)c2c(=O)cc(-c3ccc(N)c(F)c3)oc2c1F | 5.05
* CCC(=O)OCc1c(F)c(N)c2c(=O)cc(-c3ccc(N)c(F)c3)oc2c1F | 4.16
* COc1c(F)c(N)c2c(=O)cc(-c3ccc(N)c(F)c3)oc2c1F | 4.47
* CN(C)CC(=O)OCc1c(F)c(N)c2c(=O)cc(-c3ccc(N)c(F)c3)oc2c1F | 5.04
